# Tested on: green peach aphid (Myzus persicae)
# experiment-notes: Insecticidal test for green peach aphid in foliar spray assay
# Format: in vivo
# Set-up: key: % control at 200 ppm against green peach aphid in foliar spray tests / GPA 50: % control at 50 ppm against green peach aphid in foliar spray tests: A: 90-100; B: 80-89; C: 70-79; D: 60-69; E: 50-59; F: Less than 50; G: Inactive; H: Not tested
# condition-notes: 200 ppm, foliar spray on cabbage seedlings, 3 days, Corrected % Control (Abbott)
value-kind: GPA 200: % control at 200 ppm against green peach aphid in foliar spray tests

Record excerpt, results attached:
{"columns": ["compound", "reported-result"],
 "data": [
  ["COc1cc(CS(C)(=O)=NC#N)cnc1Cl (stereo not shown)", "G"],
  ["CS(=O)(Cc1cnc(Cl)c(Br)c1)=NC#N (stereo not shown)", "G"],
  ["CC(c1cnc(Cl)c(Br)c1)S(C)(=O)=NC#N (stereo not shown)", "B (80-89)"],
  ["COc1cc(C(C)S(C)(=O)=NC#N)cnc1Cl (stereo not shown)", "G"],
  ["CS(=O)(Cc1cnc(Cl)c(F)c1)=NC#N (stereo not shown)", "B (80-89)"]
]}

Please examine the following record next.
Request: Give the measured GPA 200: % control at 200 ppm against green peach aphid in foliar spray tests of CSc1ncc(C(C)S(C)(=O)=NC#N)cc1F (stereo not shown) .
Result: G

* * *

# System: cotton aphid (Aphis gossypii)
# experiment-notes: Insecticidal test for cotton aphid in foliar spray assay
# Type: in vivo
# condition-notes: Aphis gossypii, 72 h; 50 ppm, foliar spray on squash, 3 days, Corrected % Control (Abbott); Table 1; read-out: CA 50: % control at 50 ppm against cotton aphid in foliar spray tests
# Experimental: Insecticidal Test for Cotton Aphid (Aphis gossypii) in Foliar Spray Assay Squash with fully expanded cotyledon leaves were trimmed to one cotyledon per plant and infested with cotton aphid (wingless adult and nymph) 1 day prior to chemical application. […] Treated plants were held in a holding room for 3 days at approximately 23° C. and 40% RH before the number of live aphids on each plant was recorded. […]
This listing pairs compounds with measured pest or weed control at 50 ppm.

Record excerpt, results attached:
{"columns": ["compound", "tested-system", "pest or weed control at 50 ppm"],
 "data": [
  ["CSc1ncc(C(C)S(C)(=O)=NC#N)cc1F (stereo not drawn)", "cotton aphid (Aphis gossypii)", "80 to 89%"],
  ["CS(=O)(Cc1cnc(Cl)c(Br)c1)=NC#N (stereo not drawn)", "cotton aphid (Aphis gossypii)", "90 to 100%"]
]}

Please examine the following record next.
Request: Give the measured pest or weed control at 50 ppm of COc1cc(C(C)S(C)(=O)=NC#N)cnc1Cl (stereo not drawn) .
Result: 60 to 69%

* * *

# Test system: cotton aphid (Aphis gossypii)
# experiment-notes: Insecticidal test for cotton aphid in foliar spray assay
# Assay type: in vivo
# condition-notes: Aphis gossypii, 72 h; 50 ppm, foliar spray on squash, 3 days, Corrected % Control (Abbott); Table 1; read-out: CA 50: % control at 50 ppm against cotton aphid in foliar spray tests
value-kind: pest or weed control at 50 ppm

Record excerpt, results attached:
{"columns": ["compound", "pest or weed control at 50 ppm"],
 "data": [
  ["CS(=O)(Cc1cnc(Cl)cc1Cl)=NC#N (stereo not drawn)", "90 to 100%"],
  ["CS(=O)(Cc1cnc(Cl)c(F)c1)=NC#N (stereo not drawn)", "90 to 100%"],
  ["COc1cc(CS(C)(=O)=NC#N)cnc1Cl (stereo not drawn)", "70 to 79%"],
  ["CC(c1cnc(Cl)c(Br)c1)S(C)(=O)=NC#N (stereo not drawn)", "90 to 100%"]
]}

Request: Find pest or weed control at 50 ppm (cotton aphid (Aphis gossypii)) for the entry CC(c1cnc(Cl)c(F)c1)S(C)(=O)=NC#N (stereo not drawn)
Result: 90 to 100%

Request: Find pest or weed control at 50 ppm (cotton aphid (Aphis gossypii)) for the entry CS(=O)(Cc1cnc(Cl)c(Cl)c1)=NC#N (stereo not drawn)
Result: 90 to 100%
